B1: glmS ribozyme (parent)
chain: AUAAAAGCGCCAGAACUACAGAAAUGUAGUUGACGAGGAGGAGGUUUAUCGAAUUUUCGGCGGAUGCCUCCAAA

variants of: B1; assay: self-cleavage kobs at 40 uM GlcN6P; higher = faster cleavage; RNA array; conditions: with glucosamine-6-phosphate
Fewer inactive variants are shown than the library holds.
readout: self-cleavage kobs at 40 uM GlcN6P

Worked examples, 10 variants total:
U49G A53U U56A C67A C70A ... 4.31e-05 s⁻¹
G59A G60U C61A ... < 1e-05 s⁻¹
A53C C70U ... 0.000105 s⁻¹
A6U C16U G38A ... < 1e-05 s⁻¹
U30G A33C A42C ... < 1e-05 s⁻¹
A12C U31A C34U A36C A52G C58A G63U ... < 1e-05 s⁻¹
A6C G9A ... < 1e-05 s⁻¹
G9A C50G U65G G66C C70G ... 5.55e-05 s⁻¹
G37C A48U U57G ... < 1e-05 s⁻¹
G60A A64C ... < 1e-05 s⁻¹

Incoming: Sample A15G G37A A39C C61U U69G — what was its self-cleavage kobs at 40 uM GlcN6P?
Outgoing: < 1e-05 s⁻¹

Incoming: Name the reported self-cleavage kobs at 40 uM GlcN6P value associated with the variant G9U U30C A36C
Outgoing: < 1e-05 s⁻¹

Incoming: Given the variant G13C C68U , what is its reported self-cleavage kobs at 40 uM GlcN6P?
Outgoing: < 1e-05 s⁻¹

Incoming: Give the measured self-cleavage kobs at 40 uM GlcN6P of A14G G60A C70G .
Outgoing: < 1e-05 s⁻¹
